# Target Or Test System: human DP2 (Homo sapiens (Human))
# Sequence (Q9Y5Y4 whole entry): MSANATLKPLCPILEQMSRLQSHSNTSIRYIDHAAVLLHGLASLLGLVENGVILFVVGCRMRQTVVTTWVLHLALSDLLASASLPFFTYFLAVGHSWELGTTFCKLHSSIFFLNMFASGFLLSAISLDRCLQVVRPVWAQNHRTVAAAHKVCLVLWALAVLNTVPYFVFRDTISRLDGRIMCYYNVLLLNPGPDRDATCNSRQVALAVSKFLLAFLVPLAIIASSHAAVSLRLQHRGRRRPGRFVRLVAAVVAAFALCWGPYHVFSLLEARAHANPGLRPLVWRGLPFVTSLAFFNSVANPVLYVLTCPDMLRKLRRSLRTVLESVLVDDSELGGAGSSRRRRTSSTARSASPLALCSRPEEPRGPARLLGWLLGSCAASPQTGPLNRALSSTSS
# Protocol Summary: DP-2 Binding Inhibition Assay (3H-PGD2 binding to membranes of K562 cells expressing DP2)
# Measurement Setup: read-out: EC50 (nM) 4% HSA; inhibition of 3H-PGD2 binding, 4% HSA
# Description: DP-2 Binding Inhibition Assay The coding sequence of human DP2 was introduced into the human Leukemic cell line K562 by electroporation and stable clones expressing DP2 were obtained by limiting dilution followed by cell surface staining with a rat monoclonal antibody specific for human DP2. […] Radioactivity was measured by a scintillation counter (TopCount; PerkinElmer Life Sciences, Boston, Mass.). […]

{"columns": ["Molecule", "Target Or Test System", "EC50 / nM"],
 "data": [
  ["O=C(NC1COC2(CCCC2)C1)c1ccc(Oc2cc3c(cc2Cl)C(C(=O)O)CCO3)cc1 (stereo not shown)", "human DP2 (Homo sapiens (Human))", 649],
  ["O=C(NC1CCC(c2cccc(C(F)(F)F)c2)C1)c1ccc(Oc2cc3c(cc2Cl)C(C(=O)O)CCO3)cc1 (stereo not shown)", "human DP2 (Homo sapiens (Human))", 298],
  ["O=C(NCCc1ccc(F)cc1)c1ccc(Oc2cc3c(cc2Cl)C(C(=O)O)CCO3)cc1 (stereo not shown)", "human DP2 (Homo sapiens (Human))", 344],
  ["O=C(NCCc1ccc(Cl)cc1)c1ccc(Oc2cc3c(cc2Cl)C(C(=O)O)CCO3)cc1 (stereo not shown)", "human DP2 (Homo sapiens (Human))", 225]
]}
